- testedTarget: panel of more than 300 wild-type and mutant kinases (313 kinase panel) (Homo sapiens)
- procedureText: Kinase profiling in a biochemical assay panel (mobility shift assays and ELISA), %-inhibition at 1 μM; selectivity entropy
- conditions: kinase MAP2K3; compound at 1 μM
Please go through the items and note down their %-inhibition of MAP2K3.
One number for each entry, in %.

Worked cases, answers included:
compound	numericResult
CS(=O)(=O)CCNCc1ccc(-c2ccc3ncnc(Nc4ccc(OCc5cccc(F)c5)c(Cl)c4)c3c2)o1 [lapatinib]	13
COc1cc2nccc(Oc3ccc(NC(=O)C4(C(=O)Nc5ccc(F)cc5)CC4)cc3)c2cc1OC [cabozantinib]	72

Note: attention shifts to another entry.
q: Please give the measured %-inhibition of MAP2K3 for this compound: CC(C)(C)c1nc(-c2cccc(NS(=O)(=O)c3c(F)cccc3F)c2F)c(-c2ccnc(N)n2)s1 [dabrafenib]
a: 11

###

- testedTarget: panel of more than 300 wild-type and mutant kinases (313 kinase panel) (Homo sapiens, UniProt Q15375)
- Sequence (Q15375 28-998, change not shown): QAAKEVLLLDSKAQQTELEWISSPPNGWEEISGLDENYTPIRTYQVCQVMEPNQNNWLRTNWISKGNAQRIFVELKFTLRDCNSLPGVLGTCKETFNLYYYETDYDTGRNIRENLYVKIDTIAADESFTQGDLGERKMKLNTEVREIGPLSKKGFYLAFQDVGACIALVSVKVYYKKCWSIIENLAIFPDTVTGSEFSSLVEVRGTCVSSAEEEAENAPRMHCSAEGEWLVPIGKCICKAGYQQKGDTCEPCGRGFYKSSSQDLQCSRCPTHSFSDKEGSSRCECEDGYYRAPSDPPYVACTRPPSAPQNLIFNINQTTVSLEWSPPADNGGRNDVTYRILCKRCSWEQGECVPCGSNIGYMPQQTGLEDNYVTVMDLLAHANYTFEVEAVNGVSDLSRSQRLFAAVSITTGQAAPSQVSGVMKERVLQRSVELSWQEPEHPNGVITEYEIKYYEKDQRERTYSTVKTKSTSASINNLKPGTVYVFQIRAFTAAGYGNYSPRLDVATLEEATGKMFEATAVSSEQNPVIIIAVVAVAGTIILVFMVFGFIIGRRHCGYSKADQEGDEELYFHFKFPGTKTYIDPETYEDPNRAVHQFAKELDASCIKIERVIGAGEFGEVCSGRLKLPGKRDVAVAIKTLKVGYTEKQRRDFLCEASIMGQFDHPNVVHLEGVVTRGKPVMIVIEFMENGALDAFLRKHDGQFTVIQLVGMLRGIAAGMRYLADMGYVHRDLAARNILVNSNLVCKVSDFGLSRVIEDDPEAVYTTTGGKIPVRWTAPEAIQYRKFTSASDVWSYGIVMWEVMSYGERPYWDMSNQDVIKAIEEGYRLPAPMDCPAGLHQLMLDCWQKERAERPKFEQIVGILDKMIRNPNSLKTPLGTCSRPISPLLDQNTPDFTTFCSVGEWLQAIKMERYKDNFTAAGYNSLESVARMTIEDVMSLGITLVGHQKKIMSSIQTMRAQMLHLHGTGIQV
- procedureText: Kinase profiling in a biochemical assay panel (mobility shift assays and ELISA), %-inhibition at 1 μM; selectivity entropy
- conditions: kinase EPHA7; compound at 1 μM
Please go through the items and note down their %-inhibition of EPHA7.
Answers are plain numbers, in %.

Worked cases, answers included:
substanceSmiles	%-inhibition of EPHA7, %
O=S(=O)(c1cccc2cnccc12)N1CCCNCC1	-5
N#CC[C@H](C1CCCC1)n1cc(-c2ncnc3[nH]ccc23)cn1	7.51

Note: attention shifts to another entry.
q: Please give the measured %-inhibition of EPHA7 for this compound: CO[C@H]1C[C@@H]2CC[C@@H](C)[C@@](O)(O2)C(=O)C(=O)N2CCCC[C@H]2C(=O)O[C@H]([C@H](C)C[C@@H]2CC[C@@H](OC(=O)C(C)(CO)CO)[C@H](OC)C2)CC(=O)[C@H](C)/C=C(\C)[C@@H](O)[C@@H](OC)C(=O)[C@H](C)C[C@H](C)/C=C/C=C/C=C/1C
a: -6

###

Please go through the items and note down their %-inhibition of MSSK1.
- testedTarget: panel of more than 300 wild-type and mutant kinases (313 kinase panel) (Homo sapiens)
- procedureText: Kinase profiling in a biochemical assay panel (mobility shift assays and ELISA), %-inhibition at 1 μM; selectivity entropy
- conditions: kinase MSSK1; 1 μM
One number for each entry, in %.

Worked cases, answers included:
compound	measurementUnits	numericResult
CS(=O)(=O)CCNCc1ccc(-c2ccc3ncnc(Nc4ccc(OCc5cccc(F)c5)c(Cl)c4)c3c2)o1	%	-3
Cc1cn(-c2cc(NC(=O)c3ccc(C)c(Nc4nccc(-c5cccnc5)n4)c3)cc(C(F)(F)F)c2)cn1	%	-17
COc1cc2nccc(Oc3ccc(NC(=O)C4(C(=O)Nc5ccc(F)cc5)CC4)cc3)c2cc1OC [cabozantinib]	%	32
CO[C@H]1C[C@@H]2CC[C@@H](C)[C@@](O)(O2)C(=O)C(=O)N2CCCC[C@H]2C(=O)O[C@H]([C@H](C)C[C@@H]2CC[C@@H](OC(=O)C(C)(CO)CO)[C@H](OC)C2)CC(=O)[C@H](C)/C=C(\C)[C@@H](O)[C@@H](OC)C(=O)[C@H](C)C[C@H](C)/C=C/C=C/C=C/1C	%	-8
Cc1ccc(C(=O)Nc2ccc(CN3CCN(C)CC3)c(C(F)(F)F)c2)cc1C#Cc1cnc2cccnn12	%	17
CC(=O)Nc1cccc(-n2c(=O)n(C3CC3)c(=O)c3c(Nc4ccc(I)cc4F)n(C)c(=O)c(C)c32)c1	%	-5
Cc1nc(Nc2ncc(C(=O)Nc3c(C)cccc3Cl)s2)cc(N2CCN(CCO)CC2)n1	%	-4.63
CO[C@H]1C[C@@H]2CC[C@@H](C)[C@@](O)(O2)C(=O)C(=O)N2CCCC[C@H]2C(=O)O[C@H]([C@H](C)C[C@@H]2CC[C@@H](OCCO)[C@H](OC)C2)CC(=O)[C@H](C)/C=C(\C)[C@@H](O)[C@@H](OC)C(=O)[C@H](C)C[C@H](C)/C=C/C=C/C=C/1C	%	-7

Give me %-inhibition of MSSK1 for each of these compounds, listed below.
1. CNC(=O)c1cc(Oc2ccc(NC(=O)Nc3ccc(Cl)c(C(F)(F)F)c3)c(F)c2)ccn1
2. Cc1ccc(Nc2nccc(N(C)c3ccc4c(C)n(C)nc4c3)n2)cc1S(N)(=O)=O
3. O=S(=O)(c1cccc2cnccc12)N1CCCNCC1
4. CC(C)(C)c1nc(-c2cccc(NS(=O)(=O)c3c(F)cccc3F)c2F)c(-c2ccnc(N)n2)s1
5. CCCS(=O)(=O)Nc1ccc(F)c(C(=O)c2c[nH]c3ncc(-c4ccc(Cl)cc4)cc23)c1F

a:
1. 43
2. -2
3. -5.56
4. 2.55
5. -6.65

These measurements were taken from paper PMC3961306.
